# test: Cytotoxicity in SH-SY5Y cells (MTT)
# Assay type: cell-based
# test.context: human, SH-SY5Y neuronal cells, concentration reducing cell viability to 50% of control
Measured IC50 at 24 h by item
metric: IC50 at 24 h (µM)

* COc1cc(/C=C/C(O)=C/C(=O)C(F)(F)F)ccc1F | 88
* O=C(/C=C(O)/C=C/c1ccc(O)c(F)c1)c1ccccc1 | 98.1
* O=C(/C=C(O)/C=C/c1cc(F)c(O)cc1F)c1ccccc1 | 134
* O=C(/C=C(O)/C=C/c1ccc(O)cc1F)C(F)(F)F | 138
* COc1cc(/C=C/C(O)=C/C(=O)c2ccccc2)ccc1F | 75.7
